pKi: −log10 of the molar value.
Collected from the literature: pKi of various molecules toward HIV-1 protease (Human immunodeficiency virus).
reported.metric: pKi

I = Cc1c(O)cccc1C(=O)N[C@@H](Cc1ccccc1)[C@@H](O)C[C@H](Cc1ccccc1)NC(=O)c1ccccc1
II = CC(C)[C@H](NC(=O)OCc1ccccc1)C(=O)N[C@@H](Cc1ccccc1)[C@@H](O)[C@H](O)[C@H](Cc1ccccc1)NC(=O)[C@@H](NC(=O)OCc1ccccc1)C(C)C
III = Nc1n[nH]c2ccc(CN3C(=O)N(CC4CCC4)[C@H](Cc4ccccc4)[C@H](O)[C@@H](O)[C@H]3Cc3ccccc3)cc12
Which order do the above molecules take when sorted by rising pKi? Smallest first. The response must list the labels following the requested ordering.
I, II, III
(I: 8.34, II: 8.82, III: 10.80)
